Taken from patent US20030186281A1.

Test system: tet operator sequence
protocolSummary: β-galactosidase activity of a tetracycline-regulated promoter in transformed E. coli with revTetR, in the presence and absence of anhydrotetracycline (atc)
Type: cell-based, Escherichia coli
conditionsUsed: RevTetR isolate cultured in the absence of anhydrotetracycline (ATC)
# strict inequality: β-Galactosidase Activity, Cultured Without ATC < 100 yields MET, everything else yields NOT MET

molecule: TetRrev96/99-20: revTetR(BD) G96S V99K (protein, Modified tetracycline repressor, revTetR(BD) G96S V99K) MSRLDKSKVINSALELLNEVGIEGLTTRKLAQKLGVEQPTLYWHVKNKRALLDALAVEILARHHDYSLPAAGESWQSFLRNNAMSFRRALLRYRDSAKKHLGTRPDEKQYDTVETQLRFMTENGFSLRDGLYAISAVSHFTLGAVLEQQEHTAALTDRPAAPDENLPPLLREALQIMDSDDGEQAFLHGLESLIRGFEVQLTALLQIV
labelValue: MET
//
molecule: TetRrevAtc4-21: revTetR(BD) K6K D53F L55L V57L I59S A61S (protein, Modified tetracycline repressor, revTetR(BD) K6K D53F L55L V57L I59S A61S) MSRLDKSKVINSALELLNEVGIEGLTTRKLAQKLGVEQPTLYWHVKNKRALLFALALESLSRHHDYSLPAAGESWQSFLRNNAMSFRRALLRYRDGAKVHLGTRPDEKQYDTVETQLRFMTENGFSLRDGLYAISAVSHFTLGAVLEQQEHTAALTDRPAAPDENLPPLLREALQIMDSDDGEQAFLHGLESLIRGFEVQLTALLQIV
labelValue: NOT MET

[ask] Field: below-cutoff. Rule: recorded β-Galactosidase Activity, Cultured Without ATC strictly less than 100. Subject: TetRrevAF1/3: revTetR(BD) G24G D95A G96R (protein, Modified tetracycline repressor, revTetR(BD) G24G D95A G96R) MSRLDKSKVINSALELLNEVGIEGLTTRKLAQKLGVEQPTLYWHVKNKRALLDALAVEILARHHDYSLPAAGESWQSFLRNNAMSFRRALLRYRARAKVHLGTRPDEKQYDTVETQLRFMTENGFSLRDGLYAISAVSHFTLGAVLEQQEHTAALTDRPAAPDENLPPLLREALQIMDSDDGEQAFLHGLESLIRGFEVQLTALLQIV
[reply] MET

[ask] Now the same for TetRrev96/99-18: revTetR(BD) G96T V99P (protein, Modified tetracycline repressor, revTetR(BD) G96T V99P) MSRLDKSKVINSALELLNEVGIEGLTTRKLAQKLGVEQPTLYWHVKNKRALLDALAVEILARHHDYSLPAAGESWQSFLRNNAMSFRRALLRYRDTAKPHLGTRPDEKQYDTVETQLRFMTENGFSLRDGLYAISAVSHFTLGAVLEQQEHTAALTDRPAAPDENLPPLLREALQIMDSDDGEQAFLHGLESLIRGFEVQLTALLQIV
[reply] MET
